compounds and their reported CC50
- Procedure Details: in vitro
- Assay type: cell-based
- Reported Conditions: human; 72 h, MTS; read-out: HFF-1 CC50 (μM ± SD)
Measure: CC50 (µM)

[
  {
    "Compound": "CC(=O)OC1C=CC(C)(O)C(=O)C(C)CC=CC2C(O)C(C)=C(C)C3C(Cc4ccccc4)NC(=O)C123 (stereo not drawn)",
    "Measure": "CC50",
    "Readout Unit": "µM",
    "Qualifier": "=",
    "Test Value": 76.3
  },
  {
    "Compound": "C=C1[C@@H](C)[C@H]2[C@H](Cc3ccccc3)NC(=O)[C@]23OC(=O)/C=C/[C@H](O)CCC[C@@H](C)C/C=C/[C@H]3[C@@H]1O",
    "Measure": "CC50",
    "Readout Unit": "µM",
    "Qualifier": "=",
    "Test Value": 21.8
  },
  {
    "Compound": "C=C1[C@@H](C)[C@H]2[C@H](Cc3ccccc3)NC(=O)[C@]23OC(=O)/C=C/C(=O)CCC[C@@H](C)C/C=C/[C@H]3[C@@H]1O",
    "Measure": "CC50",
    "Readout Unit": "µM",
    "Qualifier": "=",
    "Test Value": 27.1
  },
  {
    "Compound": "O=C(Cn1ccnc1[N+](=O)[O-])NCc1ccccc1 [BZ, benznidazole, reference compound]",
    "Measure": "CC50",
    "Readout Unit": "µM",
    "Qualifier": ">",
    "Test Value": 64
  },
  {
    "Compound": "COc1cccc2c1C(=O)c1c(O)c3c(c(O)c1C2=O)C[C@@](O)(C(=O)CO)C[C@@H]3O[C@H]1C[C@H](N)[C@H](O)[C@H](C)O1 [DOX, doxorubicin, reference compound]",
    "Measure": "CC50",
    "Readout Unit": "µM",
    "Qualifier": "=",
    "Test Value": 0.69
  },
  {
    "Compound": "C=C1[C@@H](C)[C@H]2[C@H](Cc3ccccc3)NC(=O)[C@]23[C@H](OC(C)=O)/C=C/[C@@](C)(O)C(=O)[C@@H](C)C/C=C/[C@H]3[C@@H]1O",
    "Measure": "CC50",
    "Readout Unit": "µM",
    "Qualifier": "=",
    "Test Value": 96.5
  }
]

###

- Procedure Details: in vitro
- Assay type: cell-based
- Reported Conditions: human; 72 h, MTS; read-out: HepG2 CC50 (μM ± SD)
- Experimental: THP-1 (human monocyte cell line) cells were cultivated in RPMI medium supplemented with 10% foetal calf serum (FCS) (Cultilab, Campinas, SP, BR) and 1% penicillin and streptomycin (pen/strep—Sigma-Aldrich) at 37°C under 5% CO2, and HFF-1 (human fibroblast) and HepG2 (hepatocytes) cells were cultivated in DMEM without phenol red (Cultilab) supplemented with 10% FBS (Sigma-Aldrich) and 1% pen/strep at 37°C under 5% CO2. […]
Each entry below lists one item and its recorded log10 of CC50 value.
Measure: log10 of CC50 (log10 of the value in µM)

[
  {
    "Compound": "CC(=O)OC1C=CC(C)(O)C(=O)C(C)CC=CC2C(O)C(C)=C(C)C3C(Cc4ccccc4)NC(=O)C123 (centres unmarked)",
    "log10 of CC50": 1.35
  },
  {
    "Compound": "COc1cccc2c1C(=O)c1c(O)c3c(c(O)c1C2=O)C[C@@](O)(C(=O)CO)C[C@@H]3O[C@H]1C[C@H](N)[C@H](O)[C@H](C)O1 [DOX, doxorubicin, reference compound]",
    "log10 of CC50": -0.62
  },
  {
    "Compound": "C=C1[C@@H](C)[C@H]2[C@H](Cc3ccccc3)NC(=O)[C@]23OC(=O)/C=C/C(=O)CCC[C@@H](C)C/C=C/[C@H]3[C@@H]1O",
    "log10 of CC50": 1.32
  },
  {
    "Compound": "C=C1[C@@H](C)[C@H]2[C@H](Cc3ccccc3)NC(=O)[C@]23[C@H](OC(C)=O)/C=C/[C@@](C)(O)C(=O)[C@@H](C)C/C=C/[C@H]3[C@@H]1O",
    "log10 of CC50": 2.09
  },
  {
    "Compound": "C=C1[C@@H](C)[C@H]2[C@H](Cc3ccccc3)NC(=O)[C@]23OC(=O)/C=C/[C@H](O)CCC[C@@H](C)C/C=C/[C@H]3[C@@H]1O",
    "log10 of CC50": 1.67
  }
]
